molecular target: Human IDO1 (Homo sapiens); assay: IDO Kynurenine Assay with Human IDO1/HEK293 Cells; conditions: 20 hours incubation, kynurenine absorbance at 490 nm, read-out: HEK human IDO-1 (IC50)
Sequence (P14902 whole entry): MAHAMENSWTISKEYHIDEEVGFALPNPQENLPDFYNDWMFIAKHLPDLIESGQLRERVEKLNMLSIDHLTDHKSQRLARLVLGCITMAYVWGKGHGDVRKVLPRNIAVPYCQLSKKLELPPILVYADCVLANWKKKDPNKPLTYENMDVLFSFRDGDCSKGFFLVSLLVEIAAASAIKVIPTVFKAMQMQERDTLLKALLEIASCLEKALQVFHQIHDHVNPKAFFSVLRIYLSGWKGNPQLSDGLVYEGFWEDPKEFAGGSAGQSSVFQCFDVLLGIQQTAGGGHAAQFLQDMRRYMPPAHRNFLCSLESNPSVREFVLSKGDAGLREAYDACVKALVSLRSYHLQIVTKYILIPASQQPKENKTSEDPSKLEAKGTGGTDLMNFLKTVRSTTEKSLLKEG
# reported pIC50; entries follow
Lab note: report pIC50 as minus log10 of the concentration in molar units, number only.

- COMPOUND: "CC(C)CN(CC(C)C)c1ccc(-c2ccccc2-c2nnn[nH]2)cc1NC(=O)Cc1ccsc1"
  pIC50: 7.70
- COMPOUND: "CC(C)CN(CC(C)C)c1ccc(-c2ccccc2-c2nnn[nH]2)cc1NC(=O)Cc1ccc(Cl)nc1"
  pIC50: 7.70

pIC50 recorded for this compound, `CC(C)CN(CCOC(C)C)c1ccc(-c2cc(F)ccc2C(=O)O)cc1NC(=O)Cc1ccc(C#N)cc1` , is 5.53

The value of pIC50 measured for the compound `Cc1ccc(CC(=O)Nc2cc(-c3cc(F)ccc3C(=O)O)cc(F)c2N(CC(C)C)C2CCCCC2)cc1` turned out to be 7.52

The compound `Cc1cc(CC(=O)Nc2cc(-c3cc(F)ccc3C(=O)O)c(F)cc2N(CC(C)C)C2CCCCC2)on1` showed pIC50 equal to 6.85

`CC(C)CN(c1cc(F)c(-c2ccccc2-c2nnn[nH]2)cc1NC(=O)Cc1ccc(C#N)cc1)C1CCCCC1` has a reported pIC50 of 7.40

GET /value?item= `COC(C)(C)CCN(c1ccc(-c2ccccc2-c2nnn[nH]2)cc1NC(=O)Cc1ccc(C)nc1)C1CCCCC1` &field=pIC50 returns 5.13

Lookup result for `CCC(CC)N(CC(C)C)c1ccc(-c2ccccc2C(=O)O)cc1NC(=O)Cc1ccc(C)cc1` ; measured pIC50: 7.70

Lab book: pIC50 of `CCC(CC)N(CC(C)C)c1ccc(-c2ccccc2-c2nnn[nH]2)cc1NC(=O)Cc1ccc(C)cc1` noted as 8.36

Input Cc1ccc(CC(=O)Nc2cc(-c3ccccc3-c3nnn[nH]3)ccc2N2CC3CC2CN3Cc2ccccc2)cc1 (stereo not shown) . Output pIC50: 8.29

`CC(C)CN(CC(C)C)c1ccc(-c2ccccc2-c2nnn[nH]2)cc1NC(=O)Cc1ccc(I)cc1` has a reported pIC50 of 8.50

Reported pIC50 ( `Cc1ccc(CC(=O)Nc2cc(-c3ccccc3-c3nnn[nH]3)ccc2N(CC(C)C)CC(C)C)cn1` ) = 6.92

pIC50 measured on `CC(C)CN(CCOC(C)C)c1ccc(-c2ccccc2C(=O)O)cc1NC(=O)Cc1ccc(C#N)cc1` = 5.32
